Reported Tm values follow for various sequences
- ASSAY NOTES: melting temperature; fluorescence melt of hairpins on a sequencing array, two-state fit, raised by 9.35 °C to match UV melts
- EXPERIMENTAL CONDITIONS: sodium 0.088 M
Value and unit, in that order.

Look over these answered cases.
SEQUENCE DATA	Tm
GTCGGACGAAAGTCTGAC (((.(((....))).)))	61.5 °C
GCGTACGAAAGTATACGC ((((((....)))..)))	51.4 °C
GCGAGCGAAAGCTTCGC ((((((....))).)))	66.1 °C
GAGGAGAAATCCTC (((((....)))))	43.4 °C
CGTATGCGGAAACGCACG (((..(((....))))))	40.7 °C

Tm for GAGGGCGCGAAAGCGCTC (((..(((....)))))) ?
42.5 °C

Similarly, GCCAGATCGAAAGATGGC (((..(((....)))))) ?
48.2 °C

Similarly, GCGGCCTCGAAAGAGCGC (((..(((....)))))) ?
52.7 °C

Similarly, GTAAGCGAAAGCTTCTAC ((((((....)))..))) ?
33.6 °C

Similarly, GCCTACCGAAAGGTCGGC (((.(((....))).))) ?
56.5 °C

Similarly, GATCTGCTTGCAGATC ((((((....)))))) ?
67.3 °C

Similarly, GGTTACGAAAGTAGTACC ((((((....)))..))) ?
34.8 °C
